These data points were gathered from patent US9856220B2.

Study System: PDE10A (Homo sapiens (Human))
Sequence (Q9Y233 whole entry, species assumed): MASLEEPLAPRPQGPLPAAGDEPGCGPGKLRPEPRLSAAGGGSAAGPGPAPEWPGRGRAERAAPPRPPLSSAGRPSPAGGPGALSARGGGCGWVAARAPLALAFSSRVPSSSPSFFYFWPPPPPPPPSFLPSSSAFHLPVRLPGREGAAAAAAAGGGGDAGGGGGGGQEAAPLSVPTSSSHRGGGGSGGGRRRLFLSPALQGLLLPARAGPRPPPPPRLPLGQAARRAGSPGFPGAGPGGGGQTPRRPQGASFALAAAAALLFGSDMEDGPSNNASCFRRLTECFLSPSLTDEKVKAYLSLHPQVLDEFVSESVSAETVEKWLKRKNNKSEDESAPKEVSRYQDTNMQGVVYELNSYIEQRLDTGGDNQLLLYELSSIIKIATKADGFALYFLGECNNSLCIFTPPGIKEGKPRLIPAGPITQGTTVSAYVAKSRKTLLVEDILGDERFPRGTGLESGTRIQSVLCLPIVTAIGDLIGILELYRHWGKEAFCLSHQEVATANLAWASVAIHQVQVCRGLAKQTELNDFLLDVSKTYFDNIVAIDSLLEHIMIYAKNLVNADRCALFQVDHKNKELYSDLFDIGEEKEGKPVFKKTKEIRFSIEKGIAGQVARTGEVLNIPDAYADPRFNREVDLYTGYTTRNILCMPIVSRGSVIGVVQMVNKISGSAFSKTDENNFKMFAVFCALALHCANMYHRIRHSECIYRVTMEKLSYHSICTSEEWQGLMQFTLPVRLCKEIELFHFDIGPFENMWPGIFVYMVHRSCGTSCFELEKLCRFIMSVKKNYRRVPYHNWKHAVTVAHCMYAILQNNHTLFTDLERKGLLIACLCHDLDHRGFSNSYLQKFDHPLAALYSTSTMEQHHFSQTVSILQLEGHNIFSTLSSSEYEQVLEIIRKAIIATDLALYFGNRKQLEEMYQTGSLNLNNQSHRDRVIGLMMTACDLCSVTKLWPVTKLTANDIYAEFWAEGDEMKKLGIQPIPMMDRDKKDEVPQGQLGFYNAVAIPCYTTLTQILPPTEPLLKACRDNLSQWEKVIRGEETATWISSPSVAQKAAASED
Measurement Description: Measurement of PDE activity (recombinant PDE, cAMP HTRF)
Setup Conditions: 20 nM cyclic nucleotide substrate, 60 minutes at 29 C
pIC50: −log10 of the molar value.
So I've got a bunch of compounds here, and I need their pIC50 values.

Data request, read-out pIC50, for "CCC(CC)n1cc(C(=O)NCC2CCCCC2)c2cc(OC)c(OC)cc2c1=O"
6.70 to 7.00

What do you get for CCC(CC)n1cc(C(=O)NC2CCc3ccc(OC)cc32)c2cc(OC)c(OC)cc2c1=O (centres unmarked) ?
> 7.00

Same thing, different compound: "CCC(CC)n1cc(C(=O)NCc2ccc(C)s2)c2cc(OC)c(OC)cc2c1=O"
6.70 to 7.00

Query "CCc1ccc(CNC(=O)c2cn(C(CC)CC)c(=O)c3cc(OC)c(OC)cc23)s1" next
6.30 to 6.70

Can you handle CCCC(C)NC(=O)c1cn(CC)c(=O)c2cc(OC)c(OC)cc12 (centres unmarked) next?
6.30 to 6.70

Now give it for "CCn1cc(C(=O)Nc2ccc(F)cc2)c2cc(OC)c(OC)cc2c1=O" too.
6.30 to 6.70

Same read-out for "CCn1cc(C(=O)NCc2ccccc2CN2CCOCC2)c2cc(OC)c(OC)cc2c1=O" ?
6.30 to 6.70

Same question for CCC(CC)n1cc(C(=O)NC2CCc3ncccc32)c2cc(OC)c(OC)cc2c1=O (single isomer, unassigned; (+)) [Example 199] please.
6.30 to 6.70
